Attribution: patent US12577469B2

- experiment_description: Evaluation of liquid crystallinity of compound (hot stage, polarization microscope)
- Assay type: physicochemical
- Design: key: A case of having liquid crystallinity was evaluated as A; a case of having no liquid crystallinity was evaluated as B
- particulars: compound alone, heated on hot stage

{"columns": ["query_smiles", "Compound 2 Liquid crystallinity"],
 "data": [
  ["C=CC(=O)OCCSc1ccc(C#Cc2ccc(OCc3ccc(C#Cc4ccc(COc5ccc(C#Cc6ccc(SCCOC(=O)C=C)cc6)cc5C)cc4)cc3)c(C)c2)cc1", "A"],
  ["CC(=O)OCCc1ccc(C#Cc2ccc(OCc3ccc(C#Cc4ccc(COc5ccc(C#Cc6ccc(CCOC(C)=O)cc6)cc5C)cc4)cc3)c(C)c2)cc1", "A"],
  ["C=CC(=O)OCCc1ccc(C#Cc2ccc(OCc3ccc(C#Cc4ccc(COc5ccc(C#Cc6ccc(CCOC(=O)C=C)cc6)cc5C)cc4)cc3)c(C)c2)cc1", "A"],
  ["C=CC(=O)OCCSc1ccc(C#Cc2ccc(OCc3ccc(C#Cc4ccc(COc5ccc(C#Cc6ccc(SCCOC(=O)C=C)cc6)cc5C(=O)OC)cc4)cc3)c(C(=O)OC)c2)cc1", "A"]
]}
